Assay: Selectivity index, ratio of IC50 for human HL7702 cells to IC50 for human HCT116 cells
Type: toxicity
Conditions: HL7702 cells versus HCT116 cells, read-out: Ratio IC50
READOUT_KIND: selectivity ratio

{"columns": ["COMPOUND_STRUCTURE_STRING", "MEASURED"],
 "data": [
  ["COC(=O)[C@]1(C)CCC[C@]2(C)c3ccc(C(C)C)c(NC(=O)Cn4cc(-c5cccc(NC(=O)OC(C)(C)C)c5)nn4)c3CC[C@@H]12", 7.9]
]}

====

Assay: Metabolic stability in rat liver microsomes assessed as parent compound remaining after 60 mins in presence of NADPH by HPLC analysis
Format: ADME, microsome
Details: read-out: Stability

{"columns": ["COMPOUND_STRUCTURE_STRING", "remaining at 1 h"],
 "data": [
  ["COC(=O)[C@]1(C)CCC[C@]2(C)c3ccc(C(C)C)c(NC(=O)Cn4cc(-c5cccc(NC(=O)OC(C)(C)C)c5)nn4)c3CC[C@@H]12", "79.3%"]
]}
